target: Vasopressin V2 receptor (Homo sapiens); experiment: Agonist activity at recombinant human V2 receptor expressed in HEK293 cells measured after 5 hrs by cAMP response element driven luciferase reporter gene assay
Sequence (P30518 whole entry): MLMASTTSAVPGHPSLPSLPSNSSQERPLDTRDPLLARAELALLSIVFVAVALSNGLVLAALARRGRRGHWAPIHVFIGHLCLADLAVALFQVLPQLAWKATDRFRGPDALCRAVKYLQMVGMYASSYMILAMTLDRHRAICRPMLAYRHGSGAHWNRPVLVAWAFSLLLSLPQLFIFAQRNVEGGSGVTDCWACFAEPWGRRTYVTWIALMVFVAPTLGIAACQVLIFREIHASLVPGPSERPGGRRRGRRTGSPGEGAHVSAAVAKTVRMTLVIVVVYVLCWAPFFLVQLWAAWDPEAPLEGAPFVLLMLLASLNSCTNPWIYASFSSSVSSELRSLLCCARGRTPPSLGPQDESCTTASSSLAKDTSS
pEC50: −log10 of the molar value. Numbered stars: 1 amine (or outer) side, 2 acyl side, 3 side chain; on linkers, the order of the positions; unused ones are H or OH. Bridge positions count the residues as written; N and C are the ends. Square brackets hold non-standard residues; d marks the D form. Peptide text beside a SMILES is read from it. * marks the point of attachment. Phe(4-Et) = CCc1ccc(C[C@H](N)C(=O)O)cc1; 2Thi = N[C@@H](Cc1cccs1)C(=O)O; X2 = N=C(N)NCCC[C@H](CO)N*; X1 = O=C(CCC[*:2])[*:1]
QUANTITY_KIND: pEC50

CCc1ccc(C[C@@H]2NC(=O)CCCSC[C@@H](C(=O)N3CCC[C@H]3C(=O)N[C@@H](CO)CCCNC(=N)N)NC(=O)[C@H](CC(N)=O)NC(=O)[C@H](C(C)C)NC(=O)[C@H](Cc3cccs3)NC2=O)cc1 ([Phe(4-Et)][2Thi]VNCP-X2; linker N-5 via X1)
9.46
CC(C)[C@@H]1NC(=O)[C@H](Cc2ccc(F)cc2)NC(=O)[C@H](Cc2ccc(Cl)cc2)NC(=O)CCCSC[C@@H](C(=O)N2CSC[C@H]2C(=O)N[C@H](CCCNC(=N)N)C(=O)NCCc2cccs2)NC(=O)[C@H](CC(N)=O)NC1=O
9.52
CCNC(=O)[C@@H](CCCNC(=N)N)NC(=O)[C@@H]1CCCN1C(=O)[C@@H]1CSSCCC(=O)N[C@@H](Cc2ccc(Cl)cc2)C(=O)N[C@@H](Cc2cccs2)C(=O)N[C@@H](C(C)C)C(=O)N[C@@H](CC(N)=O)C(=O)N1
9.49
CNC(=O)[C@@H](CCCNC(=N)N)NC(=O)[C@@H]1CCCN1C(=O)[C@@H]1CSCCCC(=O)N[C@@H](Cc2ccc(Cl)cc2)C(=O)N[C@@H](Cc2cccs2)C(=O)N[C@@H](C(C)C)C(=O)N[C@@H](CC(N)=O)C(=O)N1
9.57

# credit: ChEMBL document CHEMBL4396873
